Source listed as patent US8697694B2.

# System: HCV replicon cells
# METHOD_DESCRIPTION: Cell-based HCV replicon assay (replicon RNA level by real time PCR, Taqman)
# MEASUREMENT_CONTEXT: Hepatitis C virus, 72 h, HCV replicon cells, harvested on day 3, replicon RNA by real time PCR; calculated EC90 reported as range class; read-out: EC90 (μM) range
We begin with a simple list: items and their reported EC90.
METRIC: EC90

smiles=Cc1nc(NCc2ccsc2)nc(N[C@@H]2C[C@H](CO)[C@@H](O)[C@H]2O)c1-c1nc2ccccc2s1 assayed_target="HCV replicon cells" observed_result="< 0.5 µM"
smiles=Cc1nc(NCc2cccc(F)c2)nc(N[C@@H]2C[C@H](CO)[C@H]3OC(C)(C)O[C@H]32)c1-c1nc2ccccc2s1 assayed_target="HCV replicon cells" observed_result="< 0.5 µM"
smiles=Cc1nc(NCc2ccncc2)nc(N[C@@H]2C[C@H](CO)[C@H]3OC(C)(C)O[C@H]32)c1-c1nc2ccccc2s1 assayed_target="HCV replicon cells" observed_result="< 0.5 µM"
smiles=CCCCCNc1nc(C)c(-c2nc3ccccc3s2)c(N[C@@H]2C[C@H](CO)[C@@H](O)[C@H]2O)n1 assayed_target="HCV replicon cells" observed_result="< 0.5 µM"
smiles=Cc1nc(NCCN(C)C)nc(N[C@@H]2C[C@H](CO)[C@H]3OC(C)(C)O[C@H]32)c1-c1nc2ccccc2s1 assayed_target="HCV replicon cells" observed_result="> 5 µM"
smiles=CSc1nc(C)c(-c2nc3ccccc3s2)c(N[C@@H]2C[C@H](CO)[C@@H](O)[C@H]2O)n1 assayed_target="HCV replicon cells" observed_result="0.5 to 5 µM"
smiles=CC(=O)N1CCC(Nc2nc(Cl)c(-c3nc4ccccc4s3)c(N[C@@H]3C[C@H](CO)[C@@H](O)[C@H]3O)n2)CC1 assayed_target="HCV replicon cells" observed_result="< 0.5 µM"
smiles=Cc1nc(NCc2cccs2)nc(N[C@@H]2C[C@H](C)[C@H]3OC4(CCCCC4)O[C@H]32)c1-c1nc2ccccc2s1 assayed_target="HCV replicon cells" observed_result="> 5 µM"
smiles=Cc1cc2cc(-c3c(C)nc(NCC4CCCCC4)nc3N[C@@H]3C[C@H](CO)[C@@H](O)[C@H]3O)oc2c(C)n1 assayed_target="HCV replicon cells" observed_result="< 0.5 µM"
smiles=Cc1nc(NCc2cccn2C)nc(N[C@@H]2C[C@H](CO)[C@H]3OC(C)(C)O[C@H]32)c1-c1nc2ccccc2s1 assayed_target="HCV replicon cells" observed_result="< 0.5 µM"
smiles=Cc1cc(CNc2nc(C)c(-c3nc4ccccc4s3)c(N[C@@H]3C[C@H](CO)[C@@H](O)[C@H]3O)n2)no1 assayed_target="HCV replicon cells" observed_result="< 0.5 µM"
smiles=CCCCCNc1nc(C)c(-c2cc3cc(CCC)nc(C)c3o2)c(N[C@@H]2C[C@H](CO)[C@@H](O)[C@H]2O)n1 assayed_target="HCV replicon cells" observed_result="< 0.5 µM"
smiles=Cc1nc(NCc2ccco2)nc(N[C@@H]2C[C@H](CO)[C@H]3OC(C)(C)O[C@H]32)c1-c1nc2ccccc2s1 assayed_target="HCV replicon cells" observed_result="< 0.5 µM"
smiles=CO[C@H](C)CNc1nc(Cl)c(-c2nc3ccccc3s2)c(N[C@@H]2C[C@H](CO)[C@@H](O)[C@H]2O)n1 assayed_target="HCV replicon cells" observed_result="< 0.5 µM"
